Provide the recorded viability for the entries that follow.
# Method description: reducers of endogenous Her2 protein level, primary screen, SKBR3 breast tumor cells, AlphaScreen, ATP viability (AID 461);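 further: percent of carrier control wells set as 100% viability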
# Condition description: 18-24 h, measured here: SKBR3 viability, ATP luminescence, at 10 µM
One number for each entry, in %.

Cc1nc(N2CCC(C)CC2)c2c(C)c(C(=O)O)sc2n1	100
Cc1cc(NCCN2CCCCC2)n2c(nc3ccccc32)c1C#N	87.5
Cc1ccc(N2CC(C(=O)N3CCN(C(=O)c4ccco4)CC3)CC2=O)cc1 (stereo not given)	96.5
CCCn1c(=N)n(CC(=O)c2cccs2)c2ccccc21	92
CCOC(=O)c1ccc2nc(NC(NC(C)=O)(C(=O)OC)C(F)(F)F)sc2c1 (stereo not given)	98.5
Cn1c2ccccc2c2ncn(CCCN3CCOCC3)c(=O)c21	89
COC(=O)c1[nH]c2cccc(C)c2c1NC(=O)CN1CCCc2ccccc21	77.5
CC1(C)CC(=O)C(C#N)=C(NCCCO)C1	99.5
Cc1cc(-n2c(C)cc(C(=O)CSc3nc4ccccc4c(=O)n3Cc3ccco3)c2C)no1	105
CSc1nc(NC(C)(C)C)nc(Oc2ccc(=O)[nH]n2)n1	101

Provide each entry's viability from the list below.
1. CCC(=O)c1ccc(OCC(O)CN2CCN(S(=O)(=O)N3CCCCC3)CC2)cc1 (stereo not given)
2. C=CCn1c(COc2ccccc2)nnc1SCC(=O)C(C)(C)C
3. CCOC(=O)c1c(NC(=O)c2nn(CC)cc2Br)c(C#N)cn1-c1ccccc1
4. Cc1nc(CCNC(=O)c2ccccc2)cs1
5. COc1nc(N2CCOCC2)nc(-n2cccc2)n1

Reply:
1. 91
2. 78
3. 78
4. 92.5
5. 94.5
